tested-on: Recombinant human Tdp2 (Homo sapiens, UniProt O95551)
Construct: made in house
Sequence (O95551 whole entry): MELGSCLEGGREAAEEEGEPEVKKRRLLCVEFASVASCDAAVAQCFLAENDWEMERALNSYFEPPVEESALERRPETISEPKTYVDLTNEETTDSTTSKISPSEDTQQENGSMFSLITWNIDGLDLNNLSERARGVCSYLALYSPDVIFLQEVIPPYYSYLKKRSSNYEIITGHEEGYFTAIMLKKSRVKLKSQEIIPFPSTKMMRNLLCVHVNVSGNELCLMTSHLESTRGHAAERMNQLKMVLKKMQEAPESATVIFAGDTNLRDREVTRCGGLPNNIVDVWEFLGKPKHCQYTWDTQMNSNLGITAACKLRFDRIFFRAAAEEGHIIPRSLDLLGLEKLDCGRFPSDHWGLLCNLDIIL
run-description: Gel-based Tdp2 activity assay
Type: biochemical
condition-label: (−)-usnic acid derivatives
Could you please report measured pIC50 for the items listed next?
Answers are plain numbers, as −log10 of the molar value.

Some solved cases for reference:
molecule	tested-on	pIC50
CC(=O)C1=C(O)C=C2Oc3c(-c4csc(NN=Cc5c[nH]c6ccccc56)n4)c(O)c(C)c(O)c3C2(C)C1=O (single isomer, unassigned; (-)) [(−)-11d]	Recombinant human Tdp2 (Homo sapiens, UniProt O95551)	5.22
CC(=O)C1=C(O)C=C2Oc3c(-c4csc(NN=Cc5ccc[nH]5)n4)c(O)c(C)c(O)c3C2(C)C1=O (single isomer, unassigned; (-)) [(−)-11a]	Recombinant human Tdp2 (Homo sapiens, UniProt O95551)	5.10

[Q] I have this molecule here, COc1ccc(C=NNc2nc(-c3c(O)c(C)c(O)c4c3OC3=CC(O)=C(C(C)=O)C(=O)C34C)cs2)cc1CN1CCN(c2ccc(F)cc2)CC1 (single isomer, unassigned; (-)) [(−)-11h] , and I need its recorded pIC50.
[A] 5.05
